# System: human cardiac OOC
# assayDetails: cells
# condition: read-out: EC50 of increase in beat frequency
Structures can show the parent of a compound that is named as a salt.
readout: pEC50
Give bare numbers, as −log10 of the molar value.

Query: Which pEC50 value belongs to CC(C)NCC(O)c1ccc(O)c(O)c1 (stereo not shown) [isoproterenol, isoproterenol hydrochloride] ?
Result: 7.52
